- Measurement target: Beta-lactamase (Citrobacter freundii, UniProt P05193)
- Sequence (P05193 whole entry): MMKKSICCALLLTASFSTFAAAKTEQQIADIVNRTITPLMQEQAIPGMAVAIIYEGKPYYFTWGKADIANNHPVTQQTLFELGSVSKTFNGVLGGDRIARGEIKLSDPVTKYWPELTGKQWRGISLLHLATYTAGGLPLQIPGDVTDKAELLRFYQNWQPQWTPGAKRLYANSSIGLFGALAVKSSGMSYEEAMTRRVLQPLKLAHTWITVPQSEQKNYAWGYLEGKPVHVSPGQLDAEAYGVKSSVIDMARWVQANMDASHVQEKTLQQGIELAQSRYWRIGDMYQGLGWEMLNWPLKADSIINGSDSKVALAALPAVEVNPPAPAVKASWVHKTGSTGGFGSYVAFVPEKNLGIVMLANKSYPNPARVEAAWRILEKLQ
- Assay details: Compound was tested for inhibition of Citrobacter freundii 1928, class C of Beta-lactamase
pIC50: −log10 of the molar value.
Parameter: pIC50

(P) C[C@]1(/C=C\c2ccccn2)[C@H](C(=O)[O-])N2C(=O)C[C@H]2S1(=O)=O.[Na+]
(Q) C[C@]1(/C=C/C[n+]2ccccc2)[C@H](C(=O)O)N2C(=O)C[C@H]2S1(=O)=O
(R) C[C@]1(/C=C\c2cncs2)[C@H](C(=O)[O-])N2C(=O)C[C@H]2S1(=O)=O.[Na+]
Sort the list above on pIC50 in ascending fashion. Lab note: record answer as labels in requested order.
Q, P, R
(Q: 4.80, P: 6.00, R: 6.39)

* * *

- Measurement target: PBP3 from Escherichia coli (K-12) (Escherichia coli)
- Sequence (P0AD68 whole entry, looked up): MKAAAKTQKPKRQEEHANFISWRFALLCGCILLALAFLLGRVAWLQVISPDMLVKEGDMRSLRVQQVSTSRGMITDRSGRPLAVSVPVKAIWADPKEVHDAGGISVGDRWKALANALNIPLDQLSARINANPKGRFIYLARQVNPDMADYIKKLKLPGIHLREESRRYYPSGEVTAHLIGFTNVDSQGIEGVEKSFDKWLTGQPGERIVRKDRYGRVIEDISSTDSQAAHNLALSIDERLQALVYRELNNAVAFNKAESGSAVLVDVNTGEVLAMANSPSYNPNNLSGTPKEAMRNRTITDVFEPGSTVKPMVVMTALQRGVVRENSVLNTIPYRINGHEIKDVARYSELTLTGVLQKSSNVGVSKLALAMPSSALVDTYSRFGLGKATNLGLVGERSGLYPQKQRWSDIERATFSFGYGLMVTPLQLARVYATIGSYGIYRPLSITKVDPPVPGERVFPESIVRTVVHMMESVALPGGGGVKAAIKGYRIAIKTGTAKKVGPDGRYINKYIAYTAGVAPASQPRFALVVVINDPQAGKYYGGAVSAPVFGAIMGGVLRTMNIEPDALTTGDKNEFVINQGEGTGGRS
Parameter: IC50

Query C[C@]1(C=CC#N)[C@H](C(=O)O)N2C(=O)C[C@H]2S1(=O)=O [Ro-481220] yields IC50 of > 340 µM

* * *

- Tested on: Pseudomonas aeruginosa
- Assay details: Compound was tested for inhibition of Pseudomonas aeruginosa 18SH in combination with Ceftriaxone (expressed in MIC).
- Format: functional, organism-based
Parameter: MIC (µg/mL)

> print(dat)
                                 cpd.smiles  parameter  units.symbol  number
1  C[C@]1(C=CC#N)[C@H](C(=O)O)N2C(=O)C[C@H]2S1(=O)=O        MIC         µg/mL       4

(I) CC(=O)/C=C\[C@@]1(C)[C@H](C(=O)O)N2C(=O)C[C@H]2S1(=O)=O
(II) C[C@]1(/C=C\C#N)[C@H](C(=O)O)N2C(=O)C[C@H]2S1(=O)=O
MIC comparison. Which is larger, I or II ? Which one? Tell me its label.
I
(I: 32 µg/mL, II: 16 µg/mL)

* * *

- Measurement target: Beta-lactamase (Escherichia coli K-12)
- Sequence (P00811 whole entry): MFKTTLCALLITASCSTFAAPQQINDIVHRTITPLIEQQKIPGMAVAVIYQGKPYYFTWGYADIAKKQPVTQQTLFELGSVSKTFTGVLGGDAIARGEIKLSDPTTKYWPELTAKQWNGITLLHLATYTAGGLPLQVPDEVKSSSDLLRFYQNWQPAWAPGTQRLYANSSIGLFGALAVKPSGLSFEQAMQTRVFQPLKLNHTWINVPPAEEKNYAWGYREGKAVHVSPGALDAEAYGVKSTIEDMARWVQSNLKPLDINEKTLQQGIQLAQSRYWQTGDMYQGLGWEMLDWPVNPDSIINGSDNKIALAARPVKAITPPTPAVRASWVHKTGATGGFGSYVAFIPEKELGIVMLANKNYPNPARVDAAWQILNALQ
- Assay details: Compound was tested for inhibition of Escherichia coli AmpC, class C of Beta-lactamase
pIC50: −log10 of the molar value.
Parameter: pIC50

(P) C[C@]1(/C=C/C[n+]2ccccc2)[C@H](C(=O)O)N2C(=O)C[C@H]2S1(=O)=O
(Q) C[C@]1(/C=C\c2cncs2)[C@H](C(=O)[O-])N2C(=O)C[C@H]2S1(=O)=O.[Na+]
// pick min by pIC50: P , Q State the label of the item chosen.
P

* * *

- Measurement target: Penicillin-binding protein 4 (Staphylococcus aureus, UniProt P72355)
Parameter: IC50 (µM)
Respond numerically; units are µM and should not be typed.

IC50 in this record for C[C@]1(/C=C\c2ccccn2)[C@H](C(=O)[O-])N2C(=O)C[C@H]2S1(=O)=O.[Na+] : 15

* * *

- Assay details: Compound was tested for inhibition of TEM-1, class A of beta-lactamases.
- Set-up: species or system Escherichia coli
Parameter: IC50 (µM)

Would you please look over these solved cases?
> print(dat)
                                 cpd.smiles  number
1  C[C@]1(/C=C/C[n+]2ccccc2)[C@H](C(=O)O)N2C(=O)C[C@H]2S1(=O)=O     3.6
2  CCOC(=O)/C=C\[C@@]1(C)[C@H](C(=O)O)N2C(=O)C[C@H]2S1(=O)=O      14
3  C[C@]1(/C=C\c2ccccn2)[C@H](C(=O)[O-])N2C(=O)C[C@H]2S1(=O)=O.[Na+]      19

(a) C[C@]1(/C=C\c2cncs2)[C@H](C(=O)[O-])N2C(=O)C[C@H]2S1(=O)=O.[Na+]
(b) C[C@]1(/C=C/c2cncs2)[C@H](C(=O)O)N2C(=O)C[C@H]2S1(=O)=O
Returns: the argument ( a or b ) having the larger IC50. Provide the label of your selected option as the answer.
a

Origin of measurements: ChEMBL document CHEMBL1129642
